- System Under Test: UniProt:Q92918
- Protocol Description: FRET Assay for HPK1 (MAP4K1): one step binding assay, displacement of labeled tracer
- Condition Context: 10 μM compound; FRET ratio 665/620, percent of control
inhibition at 10 µM values for the compounds below.
Reply with just the number (in %).

Examples with answers:
1) COc1cccc(F)c1-c1ccc2c(c1)/C(=C(\C)Nc1ccc(N3CCN(C)CC3)cc1)C(=O)N2: 82.5
2) C/C(Nc1cnn(C2CCOCC2)c1)=C1/C(=O)Nc2cnc(-c3cnccc3C)cc21: 94.1
3) C/C(Nc1cc2n(n1)CCN(C)C2=O)=C1/C(=O)Nc2cnc(-c3cnccc3C)cc21: 81.5
4) CCS(=O)(=O)n1ccc(N/C(C)=C2\C(=O)Nc3cnc(-c4cnccc4C)cc32)n1: 75.4
5) COc1cccc(F)c1-c1cc2c(cn1)NC(=O)/C2=C(/C)Nc1ccc(N2CCN(C)CC2)cc1: 88.3

Query `CCOc1cccc(F)c1-c1cc2c(cn1)NC(=O)/C2=C(/C)Nc1ccc(N2CCNCC2)nc1` on UniProt:Q92918; inhibition at 10 µM returned: 85.1

Query `CNC(=O)c1cc(N/C(C)=C2\C(=O)Nc3cnc(-c4cnccc4C)cc32)nn1C` on UniProt:Q92918; inhibition at 10 µM returned: 74

Query `C/C(Nc1cc(C)n(CCC(C)(C)O)n1)=C1/C(=O)Nc2cnc(-c3cnccc3C)cc21` on UniProt:Q92918; inhibition at 10 µM returned: 79.5

* * *

inhibition at 1 µM values for the molecules below.
- System Under Test: HPK1 (MAP4K1) (Homo sapiens)
- Sequence (Q92918 whole entry): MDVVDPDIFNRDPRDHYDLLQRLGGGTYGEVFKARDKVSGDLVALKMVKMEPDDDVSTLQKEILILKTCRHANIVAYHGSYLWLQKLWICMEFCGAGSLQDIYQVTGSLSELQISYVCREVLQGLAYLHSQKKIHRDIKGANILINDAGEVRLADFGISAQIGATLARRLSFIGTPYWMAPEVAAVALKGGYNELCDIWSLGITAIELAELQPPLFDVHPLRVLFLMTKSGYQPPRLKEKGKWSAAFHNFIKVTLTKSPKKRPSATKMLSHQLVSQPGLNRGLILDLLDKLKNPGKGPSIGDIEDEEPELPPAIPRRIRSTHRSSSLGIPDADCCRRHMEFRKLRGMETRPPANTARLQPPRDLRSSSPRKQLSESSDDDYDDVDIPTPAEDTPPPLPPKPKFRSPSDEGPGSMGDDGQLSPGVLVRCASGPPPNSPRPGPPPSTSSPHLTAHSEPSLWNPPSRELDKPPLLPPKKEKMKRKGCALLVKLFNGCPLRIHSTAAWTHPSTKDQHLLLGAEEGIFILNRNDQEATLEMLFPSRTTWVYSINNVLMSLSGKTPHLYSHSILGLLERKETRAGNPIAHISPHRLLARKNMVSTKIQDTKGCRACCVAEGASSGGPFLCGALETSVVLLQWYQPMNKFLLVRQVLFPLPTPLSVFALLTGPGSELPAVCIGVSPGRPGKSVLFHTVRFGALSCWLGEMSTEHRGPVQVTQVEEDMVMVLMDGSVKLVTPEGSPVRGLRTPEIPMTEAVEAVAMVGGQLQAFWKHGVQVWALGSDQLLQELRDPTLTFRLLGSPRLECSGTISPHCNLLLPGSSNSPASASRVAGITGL
- Protocol Description: FRET Assay for HPK1 (MAP4K1): one step binding assay, displacement of labeled tracer
- Condition Context: 1 μM compound; FRET ratio 665/620, percent of control
Answer with the value and then the unit.

Examples with answers:
1. C/C(Nc1ncn(C)n1)=C1/C(=O)Nc2cnc(-c3cnccc3C)cc21 [Example 163]: 77.3%
2. C/C(Nc1cc2n(n1)CCN(C)C2=O)=C1/C(=O)Nc2cnc(-c3cnccc3C)cc21 [Example 127]: 75.1%
3. CC(=O)N1CCC(n2cc(N/C(C)=C3\C(=O)Nc4cnc(-c5cnccc5C)cc43)cn2)CC1 [Example 90]: 72.7%
4. C/C(Nc1ccc(OC2CCN(C(=O)C3CC3)CC2)nc1)=C1/C(=O)Nc2cnc(-c3cnccc3C)cc21 [Example 177]: 69.4%
5. C/C(Nc1cc(C)n(CC[C@@H](C)O)n1)=C1/C(=O)Nc2cnc(-c3cnccc3C)cc21 [Example 190]: 52.4%

response.value for CCS(=O)(=O)n1ccc(N/C(C)=C2\C(=O)Nc3cnc(-c4cnccc4C)cc32)n1 [Example 94] (field: inhibition at 1 µM) = 66.8%

response.value for COc1cccc(F)c1-c1ccc2c(n1)/C(=C(\C)Nc1cnn(C)c1)C(=O)N2 [Example 43] (field: inhibition at 1 µM) = 86.2%

response.value for C/C(Nc1cc(C)n(CC(F)F)n1)=C1/C(=O)Nc2cnc(-c3cnccc3C)cc21 [Example 170] (field: inhibition at 1 µM) = 70.1%

* * *

inhibition at 10 µM values for the molecules below.
- System Under Test: HPK1 (MAP4K1) (Homo sapiens)
- Protocol Description: FRET Assay for HPK1 (MAP4K1): one step binding assay, displacement of labeled tracer
- Condition Context: 10 μM compound; FRET ratio 665/620, percent of control
Answer with the value and then the unit.

1. C/C(Nc1cc(C)[nH]n1)=C1/C(=O)Nc2cnc(-c3cnccc3C)cc21 [Example 179]: 77.6%
2. C/C(Nc1cc(C)n(C[C@@H](C)O)n1)=C1/C(=O)Nc2cnc(-c3cnccc3C)cc21 [Example 188]: 76%
3. C/C(Nc1cnn([C@H](C)C#N)c1)=C1/C(=O)Nc2cnc(-c3cnccc3C)cc21 [Example 160]: 78.4%

response.value for COc1cccc(F)c1-c1cc2c(cn1)NC(=O)/C2=C(/C)Nc1cnn(C2CC2)c1 [Example 30] (field: inhibition at 10 µM) = 92.8%

response.value for CC/C(Nc1cnn(C)c1)=C1/C(=O)Nc2cnc(-c3cnccc3C)cc21 [Example 47] (field: inhibition at 10 µM) = 82.5%
